# Test system: UniProtKB P25774
# Assay remarks: Enzyme Inhibition Assay: Enzyme activity is measured by observing the increase in fluorescence intensity caused by cleavage of a peptide substrate containing a fluorophore whose emission is quenched in the intact peptide.Assay buffer: 100 mM potassium phosphate pH 6.5, EDTA-Na 5 mM, Triton X-100 0.001%, DTT 5 mM.Enzymes (all at 1 nM): human and mouse Cathepsin S, Cat K, Cat B, Cat L.Substrate (20 μM): Z-Val-Val-Arg-AMC, except for Cat K which uses Z-Leu-Arg-AMC (both from Bachem).Z=Benzyloxycarbonyl.AMC=7-Amino-4-Methyl-Coumarin.DTT=dithiothreitol.Final volume: 100 μL.Excitation 360 nm, Emission 465 nm.Enzyme is added to the substance dilutions in 96-well microtitre plates and the reaction is started with substrate.
Reported metric: pIC50
Please treat pIC50 as minus the base-10 logarithm of the molar concentration.

The examples below pair each entry with its known result.
1. N#CC1(NC(=O)[C@@H]2C[C@@H](S(=O)(=O)c3ccc(-n4cnc(Cl)n4)cc3C(F)(F)F)CN2C(=O)C2(C(F)(F)F)CC2)CC1 = 9.20
2. N#CC1(NC(=O)[C@@H]2C[C@@H](S(=O)(=O)c3ccc(-n4cncn4)cc3C(F)(F)F)CN2C(=O)C2(C(F)(F)F)CC2)CC1 = 9.41

# input for lookup
Value (pIC50, UniProtKB P25774) for record `N#CC1(NC(=O)[C@@H]2C[C@@H](S(=O)(=O)c3ccc(-n4cnnn4)cc3C(F)(F)F)CN2C(=O)C2(C(F)(F)F)CC2)CC1` = 9.23

* * *

# Test system: Cathepsin S (Homo sapiens)
# Sequence (P25774 whole entry): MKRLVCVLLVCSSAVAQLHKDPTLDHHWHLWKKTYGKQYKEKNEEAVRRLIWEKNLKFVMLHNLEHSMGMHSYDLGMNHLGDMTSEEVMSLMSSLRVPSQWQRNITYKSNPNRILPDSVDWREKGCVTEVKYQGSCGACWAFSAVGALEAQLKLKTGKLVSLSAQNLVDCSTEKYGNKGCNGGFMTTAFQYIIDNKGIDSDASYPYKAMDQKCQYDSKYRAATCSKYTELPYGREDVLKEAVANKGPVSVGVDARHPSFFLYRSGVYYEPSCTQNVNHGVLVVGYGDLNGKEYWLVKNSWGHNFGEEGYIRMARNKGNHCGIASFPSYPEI
# Assay remarks: Enzyme Inhibition Assay: Enzyme activity is measured by observing the increase in fluorescence intensity caused by cleavage of a peptide substrate containing a fluorophore whose emission is quenched in the intact peptide.Assay buffer: 100 mM potassium phosphate pH 6.5, EDTA-Na 5 mM, Triton X-100 0.001%, DTT 5 mM.Enzymes (all at 1 nM): human and mouse Cathepsin S, Cat K, Cat B, Cat L.Substrate (20 μM): Z-Val-Val-Arg-AMC, except for Cat K which uses Z-Leu-Arg-AMC (both from Bachem).Z=Benzyloxycarbonyl.AMC=7-Amino-4-Methyl-Coumarin.DTT=dithiothreitol.Final volume: 100 μL.Excitation 360 nm, Emission 465 nm.Enzyme is added to the substance dilutions in 96-well microtitre plates and the reaction is started with substrate.
Reported metric: IC50 (pM)
Quick reminder: number only, in pM, skip the unit.

Some entries whose results are on file:
1. N#CC1(NC(=O)[C@@H]2C[C@@H](S(=O)(=O)c3ccc(-n4nccn4)cc3C(F)(F)F)CN2C(=O)C2(C(F)(F)F)CC2)CC1 = 506
2. N#CC1(NC(=O)[C@@H]2C[C@@H](S(=O)(=O)c3ccc(-n4cc(C(F)(F)F)cn4)cc3C(F)(F)F)CN2C(=O)C2(C(F)(F)F)CC2)CC1 = 752

Documented IC50 of `Cc1nnnn1-c1ccc(S(=O)(=O)[C@@H]2C[C@@H](C(=O)NC3(C#N)CC3)N(C(=O)C3(C(F)(F)F)CC3)C2)c(C(F)(F)F)c1` : 349

Origin of the recorded values: ChEMBL document CHEMBL5727760
